Form field: log10 of AUC at 3 h (one value per entry).
- assay-overview: AUC in Brown Norway rat iris and ciliary body administered topically after 3 hrs
- Format: ADME, tissue-based
- Parameters: time < 3 hr; concentration or dose not given beside the values
- condition-set: topical or ocular
Units before log transform: µM·h; reported quantity: AUC at 3 h; transform: log10.

{"molecule": "CCOC(=O)c1c(C)cc2nc(COC(=O)NCCOC(=O)c3cccnc3)n(-c3ccccc3S(=O)(=O)NC)c(=O)c2c1C", "log10 of AUC at 3 h": -0.67}
{"molecule": "CCOC(=O)c1c(C)cc2nc(COC(=O)NCCOC(=O)C3CCCCN3)n(-c3ccccc3S(=O)(=O)NC)c(=O)c2c1C (configuration not stated)", "log10 of AUC at 3 h": -1.44}
{"molecule": "CCOC(=O)c1c(C)cc2nc(COC(=O)NCCOC(=O)CN)n(-c3ccccc3S(=O)(=O)NC)c(=O)c2c1C", "log10 of AUC at 3 h": -1.76}
{"molecule": "CCOC(=O)c1c(C)cc2nc(COC(=O)NCCOC(=O)CN3CCCCC3)n(-c3ccccc3S(=O)(=O)NC)c(=O)c2c1C", "log10 of AUC at 3 h": -0.49}
{"molecule": "CCOC(=O)c1c(C)cc2nc(COC(=O)NCCOP(=O)(O)O)n(-c3ccccc3S(=O)(=O)NC)c(=O)c2c1C", "log10 of AUC at 3 h": -1.77}

The measured log10 of AUC at 3 h associated with `CCOC(=O)c1c(C)cc2nc(COC(=O)NCCOC(=O)[C@@H](N)C(C)C)n(-c3ccccc3S(=O)(=O)NC)c(=O)c2c1C` reads -1.40

The measured log10 of AUC at 3 h associated with `CCOC(=O)c1c(C)cc2nc(COC(=O)NCCOC(=O)[C@H](NC(=O)[C@@H](N)C(C)C)C(C)C)n(-c3ccccc3S(=O)(=O)NC)c(=O)c2c1C` reads -0.98
